Can you tell me ΔR/DRAΔ2 SA for the items I'm about to list?
Assay summary: Probe fluorescence ratio response to stearic acid relative to ADIFAB2
Assay type: binding
Cond: Table 5
Hey, just send me the number, nothing else.

ΔR/DRAΔ2 SA in this record for L2P22E6: FABP probe, substitutions M18V G31A F55I A73W vs SEQ ID NO: 2 (protein, listed as Rattus norvegicus, PEPTIDE (1)...(131) wild-type rat intestinal fatty acid binding protein) AFDGTWKVDRNENYEKFVEKMGINVVKRKLAAHDNLKLTITQEGNKFTVKESSNIRNIDVVFELGVDFAYSLWDGTELTGTWTMEGNKLVGKFKRVDNGKELIAVREISGNELIQTYTYEGVEAKRIFKKE : 0.4

For record L2P18H12: FABP probe, substitutions M18I G31V A73G vs SEQ ID NO: 2 (protein, listed as Rattus norvegicus, PEPTIDE (1)...(131) wild-type rat intestinal fatty acid binding protein) AFDGTWKVDRNENYEKFIEKMGINVVKRKLVAHDNLKLTITQEGNKFTVKESSNFRNIDVVFELGVDFAYSLGDGTELTGTWTMEGNKLVGKFKRVDNGKELIAVREISGNELIQTYTYEGVEAKRIFKKE the listed ΔR/DRAΔ2 SA is 0.5
